From: the supplement of paper PMC10307832

// values below are reported relative viability
Test system: NCI-H520
Assay: relative viability (nuclei count vs DMSO), 5 days (fraction); higher = more cells survive
Conditions: first compound 2 µM
measured_metric: relative viability

INSERT INTO results (compound, reported) VALUES
  ('CN1CCN(CCOc2cc(OC3CCOCC3)c3c(Nc4c(Cl)ccc5c4OCO5)ncnc3c2)CC1 [Saracatinib] + Cc1nc(Nc2ncc(C(=O)Nc3c(C)cccc3Cl)s2)cc(N2CCN(CCO)CC2)n1 [Dasatinib] (partner 0.075 µM)', 0.244),
  ('Cc1csc(=NC2CCCCC2)n1/N=C/c1ccc(O)c(O)c1O [MIM1] + Nc1nc2[nH]cc(CCc3ccc(C(=O)N[C@@H](CCC(=O)O)C(=O)O)cc3)c2c(=O)[nH]1 [Pemetrexed] (partner 0.2 µM)', 0.752),
  ('Cc1csc(=NC2CCCCC2)n1/N=C/c1ccc(O)c(O)c1O [MIM1] + Cc1nc(NC(=O)N2CCC[C@H]2C(N)=O)sc1-c1ccnc(C(C)(C)C(F)(F)F)c1 [Alpelisib] (partner 2 µM)', 1.19),
  ('CN1CCN(CCOc2cc(OC3CCOCC3)c3c(Nc4c(Cl)ccc5c4OCO5)ncnc3c2)CC1 [Saracatinib] + CS(=O)(=O)N1CCN(Cc2cc3nc(-c4cccc5[nH]ncc45)nc(N4CCOCC4)c3s2)CC1 [Pictilisib] (partner 1 µM)', 0.228),
  ('CN1CCN(CCOc2cc(OC3CCOCC3)c3c(Nc4c(Cl)ccc5c4OCO5)ncnc3c2)CC1 [Saracatinib] + CCNC(=O)c1noc(-c2cc(C(C)C)c(O)cc2O)c1-c1ccc(CN2CCOCC2)cc1 [Luminespib] (partner 0.01 µM)', 0.204),
  ('CN1CCN(CCOc2cc(OC3CCOCC3)c3c(Nc4c(Cl)ccc5c4OCO5)ncnc3c2)CC1 [Saracatinib] + CS(=O)(=O)CCNCc1ccc(-c2ccc3ncnc(Nc4ccc(OCc5cccc(F)c5)c(Cl)c4)c3c2)o1 [Lapatinib] (partner 2 µM)', 0.574),
  ('Cc1csc(=NC2CCCCC2)n1/N=C/c1ccc(O)c(O)c1O [MIM1] + CC(=O)Nc1cccc(-n2c(=O)n(C3CC3)c(=O)c3c(Nc4ccc(I)cc4F)n(C)c(=O)c(C)c32)c1 [Trametinib] (partner 0.02 µM)', 0.652),
  ('Cc1csc(=NC2CCCCC2)n1/N=C/c1ccc(O)c(O)c1O [MIM1] + CC1(C)CCC(c2ccc(Cl)cc2)=C(CN2CCN(c3ccc(C(=O)NS(=O)(=O)c4ccc(N[C@H](CCN5CCOCC5)CSc5ccccc5)c(S(=O)(=O)C(F)(F)F)c4)cc3)CC2)C1 [Navitoclax] (partner 0.5 µM)', 1.06),
  ('CN1CCN(CCOc2cc(OC3CCOCC3)c3c(Nc4c(Cl)ccc5c4OCO5)ncnc3c2)CC1 [Saracatinib] + Cc1nc(NC(=O)N2CCC[C@H]2C(N)=O)sc1-c1ccnc(C(C)(C)C(F)(F)F)c1 [Alpelisib] (partner 2 µM)', 0.493),
  ('Cc1csc(=NC2CCCCC2)n1/N=C/c1ccc(O)c(O)c1O [MIM1] + CC(C)C[C@H](NC(=O)[C@H](Cc1ccccc1)NC(=O)c1cnccn1)B(O)O [Bortezomib] (partner 0.002 µM)', 0.684);
